Where do these numbers come from? They come from patent US4132731A.

test: general compatibility (LD50 i.v.) in rats; details: rat, in vivo, iv; rats; aqueous meglumine salt solutions
Entries annotated with measured LD50

# molecule, valueModifier, LD50 / mg/kg
records = [
    ("COCC(=O)Nc1c(I)c(C(=O)O)c(I)c(C(=O)NC(C)(C)CO)c1I", "=", 20000),
    ("COCC(=O)Nc1c(I)c(C(=O)O)c(I)c(C(=O)NCC(C)O)c1I (centres unmarked)", "=", 19000),
    ("COCC(=O)Nc1c(I)c(C(=O)O)c(I)c(C(=O)NCCO)c1I", ">", 18600),
    ("COCC(=O)Nc1c(I)c(C(=O)O)c(I)c(C(=O)NCCCO)c1I", "=", 16300),
    ("COCC(=O)Nc1c(I)c(C(=O)O)c(I)c(C(=O)NC(C)(C)CCO)c1I", "=", 18400),
]
